Entries and their measured Relative cAMP EC50 follow.
- tested target: T1, human GIP receptor (human) (UniProt P48546)
- T1 sequence (looked up): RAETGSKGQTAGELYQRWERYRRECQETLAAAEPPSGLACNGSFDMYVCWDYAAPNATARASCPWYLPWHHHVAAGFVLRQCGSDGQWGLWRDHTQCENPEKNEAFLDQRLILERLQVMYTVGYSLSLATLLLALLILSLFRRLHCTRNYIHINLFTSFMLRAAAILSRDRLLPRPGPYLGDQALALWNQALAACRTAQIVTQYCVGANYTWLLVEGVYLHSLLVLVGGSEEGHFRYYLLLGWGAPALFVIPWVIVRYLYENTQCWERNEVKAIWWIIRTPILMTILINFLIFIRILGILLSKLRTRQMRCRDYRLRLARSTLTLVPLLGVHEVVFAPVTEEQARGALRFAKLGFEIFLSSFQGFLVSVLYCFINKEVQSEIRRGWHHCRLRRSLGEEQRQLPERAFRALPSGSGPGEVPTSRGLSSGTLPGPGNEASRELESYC
- protocol notes: cell-based or functional assay
measurement name: Relative cAMP EC50 (nM)

binder | measurement name | unit tag | result value
YXQGTFTSDXSKXLDKKAQXAFIEYLIAXGESSGEPPPSGS (synthetic construct; SITE 2: note = 2-Aminoisobutyric Acid; SITE 10: note = 3-(4-Pyridyl)-L-alanine; SITE 13: note = alpha-methyl-leucine; SITE 17: note = Lysine is chemically modified through conjugation of the epsilon-amino group of the Lysine side chain with (2-[2-(2-Amino-ethoxy)-ethoxy]-acetyl)) [Example 287] | Relative cAMP EC50 | nM | 0.0633
YXQGTFTSDFSXXLDKKAQXAFIEWLLEGGXSSGAPPPSGE (synthetic construct; SITE 2: note = 2-Aminoisobutyric Acid; SITE 12: note = L-ornithine; SITE 13: note = alpha-methyl-leucine; SITE 17: note = Lysine is chemically modified through conjugation of the epsilon-amino group of the Lysine side chain with (2-[2-(2-Amino-ethoxy)-ethoxy]-acetyl)-(gamma-Glu)) [Example 267] | Relative cAMP EC50 | nM | 0.279
YXQGTXTSDXXIXLDXKAQXSFIEXLIEGGPSSGEPPPE (synthetic construct; SITE 2: note = 2-Aminoisobutyric Acid; SITE 6: note = alpha-methyl-2-fluoro-L-phenylalanine; SITE 10: note = 3-(4-Pyridyl)-L-alanine; SITE 11: note = alpha-methyl-L-serine; SITE 13: note = alpha-methyl-leucine; SITE 16: note = L-ornithine; SITE 17: note = Lysine is chemically mo) [Example 436] | Relative cAMP EC50 | nM | 0.0294
